target: MSI1 full-length (mouse, UniProt Q61474 1-362); assay: nsRBNS (natural sequence RNA bind-n-seq); RBNS binding buffer (assumed for nsRBNS): 25 mM Tris pH 7.5, 150 mM KCl, 3 mM MgCl2, 0.01% Triton X-100, 500 ug/ml BSA, 20 U/ml SUPERase-In, 4 C; UNK is unkempt and MSI1 is Musashi-1; names of the RNAs are library labels; protein concentration not given here; high values mean tight binding
Sequence (Q61474 whole entry): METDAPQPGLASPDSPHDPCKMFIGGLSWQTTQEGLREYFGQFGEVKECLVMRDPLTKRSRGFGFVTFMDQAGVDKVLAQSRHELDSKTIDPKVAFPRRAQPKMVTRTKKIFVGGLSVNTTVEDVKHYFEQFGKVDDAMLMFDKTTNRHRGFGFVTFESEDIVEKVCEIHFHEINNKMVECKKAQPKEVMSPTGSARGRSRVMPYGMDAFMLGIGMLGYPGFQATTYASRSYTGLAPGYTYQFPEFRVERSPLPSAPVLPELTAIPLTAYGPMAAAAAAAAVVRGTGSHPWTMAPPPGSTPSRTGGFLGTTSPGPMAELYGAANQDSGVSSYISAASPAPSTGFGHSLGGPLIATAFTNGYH
In all, about 5,800 sequences were measured (“enrichment r”: median about 0.54, highest 2% from about 16 on). This is one part of a sample in which the highest values are shown more often than they occur.
Parameter: binding signal (enrichment R)
Give bare numbers, in enrichment R.

Use these answered entries as a reference point.
chr16:21655520:21655610:+|3pUTR|ENSG00000197006|msi1_unk|total|mutant (ssRNA) RNA: GGGAGUUCUACAGUCCGACGAUCUCUGUGUUCACAAUUACGUGAAGGGAGGACCCUUGGGGACCGCCAUUCUAAAUAUCAUGCCGGAAUUUAAAAAGCCAAAAUACUAAUUAUUUCUUUGCCGUGUGUAAAGGAAUGUUUUUACAACAGAGGAUUGAGCAUCA ... 0.282
chr10:119917856:119917957:+|CDS|ENSG00000107651|unk|total|mutant (ssRNA) RNA: GGGAGUUCUACAGUCCGACGAUCUAAGAAAAUCACUUUGCCAAGUAUUGGUCGAUUUCGUCACUUUACCAAUGAAACUUUGCCCGAUAUUUUAUUUUAUAACAGCCCCACCUACUGUCAGACAAUUGUGGAAAAAGCCGGAAUCAACAGAGGAUUGAGCAUCA ... 0.52
chr1:204554719:204554820:+|3pUTR|ENSG00000198625|unk|FALSE|unique (ssRNA) RNA: GGGAGUUCUACAGUCCGACGAUCAAGUACUUUCUUUUGACAGAAAUUUUCAUUCUGCUUGCCAUUGCUAUAUUCUCCCUUUAUAGGAGCCAUUGGAUUUCUUUCCUUUUGUGGGAAAUGUCCCAUUAGCAUUUUCAGAUCUUUCAACAGAGGAUUGAGCAUCA ... 0.583
chr5:97028609:97028710:+|3pUTR|ENSG00000113441|msi1|total|mutant (ssRNA) RNA: GGGAGUUCUACAGUCCGACGAUCUUGCAAAAGCCAAGGUAAAGCCAGGAUCGCUGCCAAGUUGUUUGCACUCUUUGGAGUUCCCGUCCGCUCAGGGCCUGACUGUAUUUUUCAUCCAUCUUUUCUGAAGUGUCUUUGGGCAGUCAACAGAGGAUUGAGCAUCA ... 0.321
chr1:45693489:45693605:+|CDS|ENSG00000159596|unk|FALSE|unique (ssRNA) RNA: GGGAGUUCUACAGUCCGACGAUCAAUCCCCUUCGUUGCUCCACCACUGGUCAUGCUGAUGACAAAAACUUAUAUUCCCAUAUUAGCUUUUACUCAGAUGGCUUAUGGAGCCAGUUUCCUAUCUUUCUUGGGUGGGAUCAGAUGCAACAGAGGAUUGAGCAUCA ... 0.499

# map each binder to its binding signal
1. chr5:139396562:139396955:-|CDS|ENSG00000170469|control|control|control (ssRNA) RNA: GGGAGUUCUACAGUCCGACGAUCAGGGGUCCACAAGGUGGGGGCUUGUAGCCUAGGGGAGGAGCUGGGUCUUUGUUGUCUGGUAGGCACCACCGCUUCCUUUGGGUAUUUAAUCCCUUCCUAUAUAAACAGCCCUGGUUACCCCAACAGAGGAUUGAGCAUCA
2. chr21:14485227:14485911:-|three_prime_utr|ENSG00000155307|control|control|control (ssRNA) RNA: GGGAGUUCUACAGUCCGACGAUCCCCAACUAUAUAUCUACAGAUGCAUUCCAUUUUAACUCUUCUUGAGCUAAAACGUCAAAUAGGAGAGGAAGAUAAGAUAAAUAUUUGUAAAUAAAACCUAAAGUUUAAAUGUUUUAAUCUCAACAGAGGAUUGAGCAUCA

Data returned:
1.74
1.2
